# TESTED_SYSTEM: TTX resistant Na channel of human SNS-expressing cell (SNS) (Homo sapiens, UniProt Q9Y5Y9)
# Sequence (Q9Y5Y9 whole entry, looked up): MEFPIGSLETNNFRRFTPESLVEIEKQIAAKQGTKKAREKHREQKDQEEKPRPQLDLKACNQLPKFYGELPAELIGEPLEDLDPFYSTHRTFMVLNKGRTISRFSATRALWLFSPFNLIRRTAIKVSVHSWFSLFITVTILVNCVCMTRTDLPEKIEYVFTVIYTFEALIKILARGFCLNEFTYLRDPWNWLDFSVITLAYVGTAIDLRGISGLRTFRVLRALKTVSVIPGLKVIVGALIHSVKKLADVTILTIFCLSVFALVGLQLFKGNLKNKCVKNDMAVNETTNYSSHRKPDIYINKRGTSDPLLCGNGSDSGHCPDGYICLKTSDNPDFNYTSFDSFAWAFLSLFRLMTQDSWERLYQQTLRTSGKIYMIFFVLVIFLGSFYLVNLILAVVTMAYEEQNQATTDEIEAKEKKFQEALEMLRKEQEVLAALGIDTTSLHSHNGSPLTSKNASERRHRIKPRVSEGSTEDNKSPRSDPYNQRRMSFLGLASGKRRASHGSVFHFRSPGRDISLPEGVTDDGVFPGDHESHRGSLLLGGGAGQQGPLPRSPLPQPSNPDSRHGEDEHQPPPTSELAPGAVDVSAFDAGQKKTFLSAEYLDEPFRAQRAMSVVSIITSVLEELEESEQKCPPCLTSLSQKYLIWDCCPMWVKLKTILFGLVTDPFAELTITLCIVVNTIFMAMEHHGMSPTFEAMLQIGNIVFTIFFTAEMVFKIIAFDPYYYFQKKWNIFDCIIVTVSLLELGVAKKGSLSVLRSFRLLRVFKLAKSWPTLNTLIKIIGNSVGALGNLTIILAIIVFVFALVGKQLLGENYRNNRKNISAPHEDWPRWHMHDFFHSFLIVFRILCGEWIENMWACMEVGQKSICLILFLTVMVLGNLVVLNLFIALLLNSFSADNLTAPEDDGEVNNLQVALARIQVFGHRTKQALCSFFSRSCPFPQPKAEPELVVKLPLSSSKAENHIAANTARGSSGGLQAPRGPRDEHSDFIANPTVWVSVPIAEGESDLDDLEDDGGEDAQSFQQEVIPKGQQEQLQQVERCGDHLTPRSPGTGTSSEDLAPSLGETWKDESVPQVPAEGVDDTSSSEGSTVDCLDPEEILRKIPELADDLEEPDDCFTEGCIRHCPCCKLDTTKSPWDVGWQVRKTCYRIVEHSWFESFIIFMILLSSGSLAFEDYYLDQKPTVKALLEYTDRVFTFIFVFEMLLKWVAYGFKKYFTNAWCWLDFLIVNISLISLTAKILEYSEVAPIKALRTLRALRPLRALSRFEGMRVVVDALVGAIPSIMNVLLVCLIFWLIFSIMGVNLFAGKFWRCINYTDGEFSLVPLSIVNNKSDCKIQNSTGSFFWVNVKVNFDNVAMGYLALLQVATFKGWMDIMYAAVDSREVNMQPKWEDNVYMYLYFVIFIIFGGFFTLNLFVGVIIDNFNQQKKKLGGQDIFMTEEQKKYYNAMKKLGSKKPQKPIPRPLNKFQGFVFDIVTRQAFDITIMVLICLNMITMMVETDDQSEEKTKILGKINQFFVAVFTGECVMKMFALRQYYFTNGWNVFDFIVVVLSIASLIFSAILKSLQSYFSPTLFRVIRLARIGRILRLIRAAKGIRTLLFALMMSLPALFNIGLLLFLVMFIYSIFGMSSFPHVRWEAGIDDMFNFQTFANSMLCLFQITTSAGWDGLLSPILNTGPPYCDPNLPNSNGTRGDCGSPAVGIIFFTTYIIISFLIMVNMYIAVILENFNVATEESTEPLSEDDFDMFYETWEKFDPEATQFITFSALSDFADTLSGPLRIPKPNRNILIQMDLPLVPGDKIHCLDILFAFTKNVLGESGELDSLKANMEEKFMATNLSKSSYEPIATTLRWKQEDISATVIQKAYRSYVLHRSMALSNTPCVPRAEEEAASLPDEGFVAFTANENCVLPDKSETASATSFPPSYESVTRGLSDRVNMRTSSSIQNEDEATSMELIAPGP
# ASSAY_REMARKS: cell-based
# TEST_CONTEXT: CHO-K1, compound concentration 12.5 μM; read-out: SNS inhibitory rate (%)
# cutoff 80% applies to inhibition at 12.5 µM; >= gives Criterion met, < gives Criterion not met

Before answering, review these 3 worked examples.
MOLECULE: CCOCCn1c(CNC(C)(C)C(N)=O)nc2ccc(-c3ccc(C)c(F)c3)cc21
ASSIGNED_CLASS: Criterion not met

MOLECULE: CCOCCn1c(CN[C@@H](C)C(=O)N2CCNC(=O)C2)nc2ccc(Oc3ccc(F)cc3)cc21
ASSIGNED_CLASS: Criterion met

MOLECULE: COCCCn1c(CN[C@@H](C)C(N)=O)nc2ccc(Oc3ccc(F)cc3)cc21
ASSIGNED_CLASS: Criterion met

Problem: Decide: is the reported value of inhibition at 12.5 µM for CCOCCn1c(CN[C@@H](C)C(=O)N2CCNC(C#N)C2)nc2ccc(Oc3ccc(F)cc3)cc21 (some centres unmarked) equal to or greater than 80%?
Solution: Criterion met

Problem: Quick check: does CCOCCn1c(CN[C@@H](C)C(N)=O)nc2cc(Cl)c(Oc3ccc(F)cc3)cc21 have inhibition at 12.5 µM greater than or equal to 80%?
Solution: Criterion not met

Problem: I'd appreciate it if you could say whether CCOCCn1c(CN[C@@H](C)C(N)=O)nc2cc(Cl)c(-c3ccc(F)c(F)c3)cc21 has inhibition at 12.5 µM at least equal to 80%.
Solution: Criterion not met

Problem: Can CCn1c(CN[C@@H](C)C(N)=O)nc2ccc(Oc3ccc(C)cc3)cc21 be said to have inhibition at 12.5 µM at or above 80%?
Solution: Criterion met

Problem: Please check the record C[C@H](NCc1nc2ccc(Oc3ccc(F)cc3)cc2n1CC(C)(C)O)C(N)=O and state if its inhibition at 12.5 µM is at or above 80%.
Solution: Criterion met
